# credit: PubChem BioAssay (NCI)

Tested on: OVCAR-3 ovarian
TEST METHOD NOTES: NCI-60 one-dose screen, 48 h (100 = growth as untreated, 0 = no growth, -100 = all killed)
ASSAY CONTEXT: 10 µM unless noted
The panel holds about 83,000 compounds, 20% with a hit somewhere; the sample as a whole holds those more often.
Measured growth, listed per entry for reference.
EXPERIMENTAL ENDPOINT: growth (%)

COMPOUND | EXPERIMENTAL ENDPOINT | ASSAY RESULT
CCOc1nc(-c2ccccc2)cc2c(O)c(C(=O)N/N=C/c3ccccc3)[nH]c(=O)c12 | growth | 103
C/C(=N\O)c1ccc(Cl)cc1 | growth | 113
N=C(N)c1ccc(-c2ccc(-c3ccc(Cl)c(Cl)c3)s2)nc1 | growth | -77.8
CCn1cc(C(=O)O)c(=O)c2cc(F)c(N3CCN(CC(=O)Nc4ccc(S(=O)(=O)Nc5nccc(C)n5)cc4)C(C)C3)c(F)c21 (stereo not given) | growth | 113
CC(=O)O[C@@H]1C[C@]2(C(C)C)O[C@@]1(C)[C@@H]1CCC(C)=C1[C@@H]2OC(=O)/C=C/c1ccccc1 | growth | 89.7
O=C(CSC(=S)n1cnnc1)NC(=O)c1ccccc1 | growth | 96.7
CN1CCN(c2cc(Nc3cc(C4CC4)[nH]n3)nc(Nc3ccc(CC(=O)NCc4cccc(F)c4)cc3)n2)CC1 | growth | 41.7
CC(=O)/C(=C\c1c(-c2ccccc2)[nH]c2ccccc12)S(C)(=O)=O | growth | -54.6
CC(C)c1ccc(Cc2cnc(NC(=O)c3cc(Br)cs3)s2)cc1 | growth | 15.6
CN1C(=O)/C(=C\c2c(Cl)cccc2Cl)c2ccccc21 | growth | 95.4
COc1ccc(C2CC(c3ccc(Nc4nc(Nc5ccccc5)nc(Nc5ccccc5)n4)cc3)=NN2C(C)=O)cc1 (stereo not given) | growth | 91.4
CCCOC(=O)Nc1nc2ccc(SCC(C)C)cc2s1 | growth | 15.6
CCN1C(=S)N(c2ccccc2)C2C1NN=c1s/c(=C3\C(=O)N(C(C)C)c4ccccc43)c(=O)n12 (stereo not given) | growth | 84.2
COc1ccc(OC)c(Nc2nnc(-c3ccc(O)c(OC)c3)o2)c1 | growth | 70.6
COc1cc(OCc2cccc(Br)c2C)cc(OC)c1C=O | growth | 87.1
CNC(=O)c1[nH]cc(-c2ccc(OC)cc2)c1-c1cc(OC)c2c(c1OC)OCO2 | growth | 100
O=C(O)c1cn(C2CC2)c2cc(N3CCN(Cc4ccc5ccccc5c4O)CC3)c(F)cc2c1=O | growth | -26.2
N#Cc1c(-c2ccccc2)cc(-c2ccccc2)n(CCCC(=O)Nc2ccccc2N)c1=O | growth | 26.2
O=C(N(c1ccccc1)c1ccccc1)n1cc(I)c2nc(Cl)nc(Cl)c21 | growth | 25.8
Cn1cc(-c2csc(-c3c[nH]c4ccccc34)n2)c2cnccc21 | growth | -59.8

---

System: MDA-MB-435 melanoma
TEST METHOD NOTES: NCI-60 one-dose screen, 48 h
ASSAY CONTEXT: 10 µM unless noted
The panel holds about 83,000 compounds, 20% with a hit somewhere; the sample as a whole holds those more often. Activity calls are given as the source filed them. How the source made its calls: active means growth percent below 10; inactive means the rest.
Outcomes: class 1 = active, class 0 = inactive

COMPOUND | ANSWER LABEL
COc1cc(NS(=O)(=O)c2ccc(-c3cnc(C4CC4)o3)cc2)ccc1F | class 1
c1ccc([P+](c2ccccc2)(c2ccccc2)c2ccc3c4ccc([P+](c5ccccc5)(c5ccccc5)c5ccccc5)c5cccc(c6cccc2c63)c54)cc1 | class 1
CCc1ccccc1-n1c(-c2ccc(OC)cc2)cc(-c2ccc(OC)cc2)c(C#N)c1=O | class 0
O=C(CN1C(=O)NC2NC(=O)NC21)N/N=C/c1ccccc1[N+](=O)[O-] (stereo not given) | class 0
COc1ccc(-c2cc(-c3cccnc3)nc3sc4c(=O)[nH]c(-c5ccc(Cl)cc5)nc4c23)cc1OC | class 0
CCOC(=O)Cc1cnc(N/N=C(\C)c2cc3ccccc3o2)s1 | class 0
Cn1cc(-c2csc(-c3cn(C(=O)OC(C)(C)C)c4ccc(Br)cc34)n2)c2ccnc(Cl)c21 | class 0
CC/C(=C(/c1ccc(Cl)cc1)c1ccc(OCCN(C)C)cc1)c1ccc(Cl)cc1 | class 0
O=C(CN1C(=O)S/C(=C\C(Cl)=C\c2ccccc2)C1=O)NCCc1ccc(O)cc1 | class 1
C1CN(SSN2CCOCC2)CCO1 | class 1
COC(=O)C1Cc2ccccc2CN1C(=O)c1ccc2c(c1)Cc1ccccc1-2 (stereo not given) | class 0
Cc1ccccc1/C=C/C(=O)c1cccc(OCCCCOc2cccc(C(=O)/C=C/c3ccccc3C)c2)c1 | class 0
COc1ccc2c(c1)N(CCO)C1=C(C(=O)OC1)C2c1cccc(F)c1 (stereo not given) | class 1
O=C1c2c(c3c4ccccc4[nH]c3c3ccc4ccccc4c23)C(=O)N1CCN1CCNCC1 | class 0
O=C(Nc1ccccc1)Nc1ncnc2c1ncn2-c1ccc(Cl)cc1 | class 0
